# credit: patent US20150217006A1

- assay_method_text: Octanol/water partition coefficient
- Format: physicochemical
- cond: pH 7.4, octanol / PBS pH 7.4, n=3; read-out: log P octanol/water
measurement_type: logP

compound="CC(C)C[C@H](NC(=O)C[C@H](O)[C@H](CC(C)C)NC(=O)[C@H](Cc1c[nH]cn1)NC(=O)CNC(=O)[C@@H](NC(=O)[C@H](C)NC(=O)[C@H](Cc1c[nH]c2ccccc12)NC(=O)[C@H](CCC(N)=O)NC(=O)[C@@H](Cc1ccccc1)NC(=O)CCNC(=O)CCNC(=O)CN1CCN(CC(=O)O)CCN(CC(=O)O)CCN(CC(=O)O)CC1)C(C)C)C(N)=O [^68Ga-JMV4168, metal not drawn]" value_observed=-2.53
